assayed.target: NO synthase (Rattus norvegicus, UniProt P29476)
Construct: the supernatant was then removed by decantation and frozen in portions at −80° C; from tissue; host or cells: rat cerebellum, 20,000 g supernatant of homogenate
test.details: HTS-NOS assay (NOS assay): conversion of radioactive arginine, cation-exchanger filter plate
Assay type: biochemical
condition.label: read-out: HTS-NOS assay: % inhibition (10 μM)
Procedure: This assay enables the percentage inhibition of NO synthase by an active ingredient to be determined by measuring the NOS activity under the action of the active ingredient. […] After terminating the NO-forming reaction at a given time, the amount of unconverted arginine is determined directly or indirectly. […] In this HTS-NOS assay, radioactive arginine is used as substrate. […] After drying the filter MTP and adding scintillation liquid, the bound arginine can be counted using a scintillation counter. […]

{"columns": ["smiles.input", "inhibition at 10 µM (%)"],
 "data": [
  ["CC(=O)N(c1c(-c2ccc(C(=O)O)s2)nc2ccccn12)C1CCCCC1", 59],
  ["Cc1ccn2c(NC(C)(C)C)c(-c3ccc(C(=O)O)s3)nc2c1", 61],
  ["COc1cccc(-c2nc3cc(C)cc(C)n3c2NC(C)(C)C)c1OC", 61],
  ["Cc1cc(C)n2c(NC3CCCCC3)c(-c3cccnc3)nc2c1", 62],
  ["Cc1ccn2c(NC3CCCCC3)c(-c3ccccc3F)nc2c1", 53],
  ["CC(=O)N(c1c(-c2ccc(C(=O)O)s2)nc2ccccn12)C(C)(C)C", 60],
  ["COc1ccccc1-c1nc2c(C)cccn2c1N(C(C)=O)C(C)(C)CC(C)(C)C", 53],
  ["CC(=O)N(c1c(-c2cc(C)c(C)o2)nc2cccc(C)n12)C(C)(C)CC(C)(C)C", 53],
  ["CC(=O)N(c1c(C)cccc1C)c1c(-c2cccc(Cl)c2Cl)nc2cc(C)cc(C)n12", 57],
  ["CCCCNc1c(-c2cccc(OC)c2OC)nc2cc(C)cc(C)n12", 67]
]}

---

assayed.target: NO synthase (Rattus norvegicus, UniProt P29476)
Construct: the supernatant was then removed by decantation and frozen in portions at −80° C; from tissue; host or cells: rat cerebellum, 20,000 g supernatant of homogenate
test.details: HTS-NOS assay (NOS assay): conversion of radioactive arginine, cation-exchanger filter plate
Assay type: biochemical
condition.label: 10 μM
measured.property: HTS-NOS assay: % inhibition (10 μM) (%)

{"columns": ["compound", "unit.abbrev", "endpoint.value"],
 "data": [
  ["CC(=O)OCc1ccc(-c2nc3cccc(C)n3c2N(C(C)=O)C2CCCCC2)o1 [Example 260]", "%", 51],
  ["CC(=O)OCc1ccc(-c2nc3cc(C)ccn3c2N(C(C)=O)C2CCCCC2)o1 [Example 167]", "%", 68],
  ["C#[N+]CCCCCCN(C(C)=O)c1c(-c2ccc(C)cc2)nc2cc(C)ccn12 [Example 279]", "%", 71],
  ["[C-]#[N+]CCCCCCNc1c(-c2ccccc2C)nc2cc(C)ccn12 [Example 97]", "%", 62],
  ["C#[N+]CCCCCCN(C(C)=O)c1c(-c2ccccn2)nc2cc(C)cc(C)n12 [Example 289]", "%", 63],
  ["C#[N+]CCCCCCNc1c(-c2ccco2)nc2cc(C)cc(C)n12 [Example 45]", "%", 54],
  ["Cc1cc(C)n2c(NC3CCCCC3)c(-c3ccccn3)nc2c1 [Example 114]", "%", 53],
  ["C#[N+]CCCCCCNc1c(-c2cccnc2)nc2cc(C)ccn12 [Example 19]", "%", 53],
  ["[C-]#[N+]CCCCCCNc1c(-c2ccccc2Br)nc2cc(C)cc(C)n12 [Example 92]", "%", 60],
  ["CC(=O)OCc1ccc(-c2nc3cc(C)cc(C)n3c2N(C(C)=O)c2c(C)cccc2C)o1 [Example 243]", "%", 62],
  ["[C-]#[N+]CCCCCCN(C(C)=O)c1c(-c2ccco2)nc2cc(C)cc(C)n12 [Example 159]", "%", 61],
  ["C#[N+]CCCCCCNc1c(-c2ccccc2C)nc2cc(C)cc(C)n12 [Example 106]", "%", 60],
  ["Cc1cc(C)n2c(NC(C)(C)CC(C)(C)C)c(C)nc2c1 [Example 9]", "%", 59],
  ["[C-]#[N+]CCCCCCNc1c(-c2ccc(-c3ccccc3Cl)o2)nc2cccc(C)n12 [Example 103]", "%", 50],
  ["Cc1cc(C)n2c(Nc3c(C)cccc3C)c(-c3ccccc3F)nc2c1 [Example 34]", "%", 61],
  ["CC(=O)N(c1c(-c2ccccc2C(F)(F)F)nc2ccccn12)C(C)(C)C [Example 245]", "%", 56],
  ["Cc1ccn2c(NC3CCCCC3)c(-c3ccccc3C)nc2c1 [Example 10]", "%", 54],
  ["[C-]#[N+]CCCCCCNc1c(-c2ccccc2OC)nc2cc(C)cc(C)n12 [Example 61]", "%", 73]
]}

---

assayed.target: NO synthase (Rattus norvegicus, UniProt P29476)
Construct: the supernatant was then removed by decantation and frozen in portions at −80° C; from tissue; host or cells: rat cerebellum, 20,000 g supernatant of homogenate
test.details: HTS-NOS assay (NOS assay): conversion of radioactive arginine, cation-exchanger filter plate
Format: biochemical
condition.label: read-out: HTS-NOS assay: % inhibition (10 μM)

{"columns": ["molecule", "assayed.target", "inhibition at 10 µM"],
 "data": [
  ["CC(=O)N(c1c(-c2c(F)cccc2Cl)nc2cccc(C)n12)C1CCCCC1 [Example 254]", "NO synthase (Rattus norvegicus, UniProt P29476)", "51%"],
  ["CC(=O)N(c1c(C)cccc1C)c1c(-c2ccccc2F)nc2cc(C)cc(C)n12 [Example 182]", "NO synthase (Rattus norvegicus, UniProt P29476)", "53%"],
  ["Cc1cc(C)n2c(NC3CCCCC3)c(-c3ccc([N+](=O)[O-])o3)nc2c1 [Example 104]", "NO synthase (Rattus norvegicus, UniProt P29476)", "63%"],
  ["CC(=O)N(c1c(-c2ccc(C(=O)O)o2)nc2ccc(C)cn12)C(C)(C)CC(C)(C)C [Example 282]", "NO synthase (Rattus norvegicus, UniProt P29476)", "51%"],
  ["CC(=O)N(c1c(-c2ccncc2)nc2cc(C)ccn12)C1CCCCC1 [Example 163]", "NO synthase (Rattus norvegicus, UniProt P29476)", "63%"],
  ["CC(=O)N(c1c(-c2ccco2)nc2cc(C)cc(C)n12)C1CCCCC1 [Example 203]", "NO synthase (Rattus norvegicus, UniProt P29476)", "60%"],
  ["CC(=O)N(c1c(C)nc2cc(C)ccn12)C(C)(C)CC(C)(C)C [Example 250]", "NO synthase (Rattus norvegicus, UniProt P29476)", "58%"],
  ["Cc1ccc(-c2nc3cc(C)cc(C)n3c2NC(C)(C)CC(C)(C)C)cc1 [Example 95]", "NO synthase (Rattus norvegicus, UniProt P29476)", "70%"],
  ["CC(=O)N(c1c(C)cccc1C)c1c(-c2cccc(Oc3ccc(Cl)cc3)c2)nc2ccccn12 [Example 195]", "NO synthase (Rattus norvegicus, UniProt P29476)", "54%"],
  ["CC(=O)N(c1c(-c2ccc(C(=O)O)o2)nc2c(C)cccn12)C(C)(C)CC(C)(C)C [Example 230]", "NO synthase (Rattus norvegicus, UniProt P29476)", "52%"],
  ["CCOc1ccc2ccccc2c1-c1nc2cc(C)ccn2c1N(C(C)=O)C(C)(C)C [Example 290]", "NO synthase (Rattus norvegicus, UniProt P29476)", "67%"],
  ["CC(=O)N(c1c(-c2c(F)cccc2Cl)nc2ccccn12)C(C)(C)C [Example 258]", "NO synthase (Rattus norvegicus, UniProt P29476)", "60%"],
  ["CSc1ccc(-c2nc3cnccn3c2N(C(C)=O)C(C)(C)CC(C)(C)C)s1 [Example 235]", "NO synthase (Rattus norvegicus, UniProt P29476)", "58%"],
  ["CCc1ccn2c(Nc3cccc(Cl)c3)c(-c3cc4ccccc4o3)nc2c1 [Example 319]", "NO synthase (Rattus norvegicus, UniProt P29476)", "53%"],
  ["Cc1ccn2c(NC(C)(C)C)c(-c3ccco3)nc2c1 [Example 68]", "NO synthase (Rattus norvegicus, UniProt P29476)", "57%"],
  ["CC(=O)N(c1c(-c2ccco2)nc2cc(C)ccn12)C(C)(C)C [Example 190]", "NO synthase (Rattus norvegicus, UniProt P29476)", "69%"],
  ["CCCc1cccc2nc(-c3cccs3)c(N(C(C)=O)C(C)(C)C)n12 [Example 278]", "NO synthase (Rattus norvegicus, UniProt P29476)", "55%"],
  ["CC(=O)N(c1c(-c2ccc(C(=O)O)s2)nc2cccc(C)n12)C1CCCCC1 [Example 234]", "NO synthase (Rattus norvegicus, UniProt P29476)", "58%"]
]}
